// reported Bacterial assay rank order per item
- test.system: Vpu protein (Human immunodeficiency virus type 1 group M subtype B)
- Sequence (P05919 whole entry): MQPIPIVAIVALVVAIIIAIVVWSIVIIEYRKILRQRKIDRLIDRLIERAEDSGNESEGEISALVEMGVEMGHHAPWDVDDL
- settings: Table 19a; rank among 12 compounds, 1 = highest score
Reply briefly: the number, and no unit.

See these solved cases before continuing.
molecule	reported.result
N=C(N)NC(=O)/C=C/c1cccc(C(F)(F)F)c1	2
N=C(NC(=O)CCc1ccccc1)Nc1ccccc1	9
N=C(N)NC(=O)Cc1ccc2ccccc2c1	11

# ---- query compound ----
Name the reported Bacterial assay rank order value associated with the compound N=C(N)NC(=O)/C=C/c1cccc(Br)c1 1

====

- test.system: UniProt:P05919
- settings: Table 19b
experimental.endpoint: Vpu Bacterial score

See these solved cases before continuing.
molecule	test.system	reported.result
N=C(N)NC(=O)Cc1ccc2ccccc2c1 [2-(2-napthyl)acetoylguanidine]	UniProt:P05919	1.2
Cc1cccc(/C=C/C(=O)NC(=N)N)c1 [3-methylcinnamoylguanidine]	UniProt:P05919	3.4

Name the reported Vpu Bacterial score value associated with the molecule N=C(N)NC(=O)c1ccc(-c2ccccc2)cc1 [4-phenylbenzoylguanidine] 2.8

From: patent US11192863B2
